Molecular target: human mPGES-1 (Homo sapiens (Human), UniProt O14684)
Sequence (O14684 whole entry): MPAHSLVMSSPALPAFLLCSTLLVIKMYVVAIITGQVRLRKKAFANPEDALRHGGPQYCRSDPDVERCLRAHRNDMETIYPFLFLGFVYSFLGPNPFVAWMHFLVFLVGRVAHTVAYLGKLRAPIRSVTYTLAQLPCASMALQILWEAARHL
Counter-ions that a name gives are not always drawn.
readout-kind: IC50 (nM)

Answered examples (4):
{"compound": "Cc1c(Cl)cccc1NC(=O)c1cc(NC(=O)c2cc(Cl)ccc2Cl)cc2[nH]c(NCC(C)(C)O)nc12 [Example 191, hydrochloride]", "meas-value": 3.9}
{"compound": "COCc1nc2c(C(=O)Nc3cccc(Cl)c3C)cc(NC(=O)c3cc(F)ccc3C(F)(F)F)cc2[nH]1 [Example 112, hydrochloride]", "meas-value": 2.6}
{"compound": "CCc1nc2c(C(=O)NCc3ccccc3C(F)(F)F)cc(NC(=O)c3ccccc3C(F)(F)F)cc2[nH]1 [Example 19]", "meas-value": 9.4}
{"compound": "CNCc1nc2c(C(=O)Nc3cccc(Cl)c3C)cc(NC(=O)c3ccccc3C(F)(F)F)cc2[nH]1 [Example 62, dihydrochloride]", "meas-value": 11}

[1] Cc1ccc(NC(=O)c2cc(NC(=O)c3c(Cl)cccc3Cl)cc3[nH]c(N(C)C)nc23)cc1Cl [Example 206, hydrochloride]
[2] Cc1c(Cl)cccc1NC(=O)c1cc(NC(=O)c2ccccc2C(F)(F)F)cc2[nH]c(N3CC(O)C3)nc12 [Example 148, hydrochloride]
Incoming: Name the one with the greater IC50 value, either 1 or 2 as given. Indicate which entry you chose by stating its label.
Outgoing: 1
(1: 3.2 nM, 2: 1.9 nM)

====

Molecular target: UniProt O14684
pIC50: −log10 of the molar value. Structures can show the parent of a compound that is named as a salt.
readout-kind: pIC50

Answered examples (6):
{"molecule": "COCc1nc2c(C(=O)Nc3ccsc3)cc(NC(=O)c3ccccc3C(F)(F)F)cc2[nH]1 [Example 220, hydrochloride]", "readout-kind": "pIC50", "meas-value": 8.07}
{"molecule": "COCc1nc2c(C(=O)Nc3cccnc3)cc(NC(=O)c3ccccc3C(F)(F)F)cc2[nH]1 [Example 216, hydrochloride]", "readout-kind": "pIC50", "meas-value": 6.69}
{"molecule": "COCc1nc2c(C(=O)Nc3cccc(Cl)c3C)cc(NC(=O)c3cc(OCCCC(F)(F)F)ccc3Cl)cc2[nH]1 [Example 249, hydrochloride]", "readout-kind": "pIC50", "meas-value": 6.39}
{"molecule": "CCOCc1nc2c(C(=O)NCc3ncccc3C(F)(F)F)cc(NC(=O)c3ccccc3C(F)(F)F)cc2[nH]1 [Example 80, dihydrochloride]", "readout-kind": "pIC50", "meas-value": 7.53}
{"molecule": "Cc1c(Cl)cccc1NC(=O)c1cc(NC(=O)c2ccccc2C(F)(F)F)cc2[nH]c(N(C)C)nc12 [Example 145, hydrochloride]", "readout-kind": "pIC50", "meas-value": 8.80}
{"molecule": "Cc1c(Cl)cccc1NC(=O)c1cc(NC(=O)c2ccccc2C(F)(F)F)cc2[nH]c(C3CC3)nc12 [Example 83, hydrochloride]", "readout-kind": "pIC50", "meas-value": 8.01}

[P] Cc1c(Cl)cccc1NC(=O)c1cc(NC(=O)c2ccccc2C(F)(F)F)cc2[nH]c(C(C)(C)C)nc12 [Example 76, hydrochloride]
[Q] NC(=O)Cc1nc2c(C(=O)NCc3ccccc3C(F)(F)F)cc(NC(=O)c3ccccc3C(F)(F)F)cc2[nH]1 [Example 45, hydrochloride]
Incoming: Name the one with the greater pIC50 value, either P or Q as given. Indicate which entry you chose by stating its label.
Outgoing: P
